- TARGET SYSTEM: GalNAc(b1-3)Gal
- PROTOCOL TEXT: glycan array binding signal (z-score within array); higher = stronger binding
- MEASUREMENT CONTEXT: glycan notation: IUPAC condensed, linker removed
This is one part of a sample in which the strongest signals are shown more often than they occur.
READOUT LABEL: glycan array binding signal (z-score)

Incoming: Looking for the measured glycan array binding signal (z-score) of BC2L-D C-terminal domain (Burkholderia cenocepacia), Q39MQ9_BURS3 (protein) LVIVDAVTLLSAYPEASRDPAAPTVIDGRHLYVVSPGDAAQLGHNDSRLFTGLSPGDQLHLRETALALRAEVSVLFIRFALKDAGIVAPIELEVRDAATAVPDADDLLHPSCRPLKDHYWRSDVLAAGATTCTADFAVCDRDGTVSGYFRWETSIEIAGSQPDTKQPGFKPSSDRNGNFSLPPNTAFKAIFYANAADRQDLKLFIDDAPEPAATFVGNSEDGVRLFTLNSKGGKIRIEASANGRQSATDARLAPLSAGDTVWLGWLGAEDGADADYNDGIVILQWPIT , can you help?
Outgoing: -0.243
